Listing of recorded IC50 by entry.
system: KRAS G12V (Homo sapiens, UniProt P01116+P62937, G12V)
Sequence (P01116 1-169 isoform P01116-2 G12V limits assumed): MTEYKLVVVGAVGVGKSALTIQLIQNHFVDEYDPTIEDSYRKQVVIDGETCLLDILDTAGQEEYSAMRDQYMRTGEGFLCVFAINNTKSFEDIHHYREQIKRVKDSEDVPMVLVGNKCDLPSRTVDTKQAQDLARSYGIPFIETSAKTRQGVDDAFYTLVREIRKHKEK
Sequence (P62937 whole entry): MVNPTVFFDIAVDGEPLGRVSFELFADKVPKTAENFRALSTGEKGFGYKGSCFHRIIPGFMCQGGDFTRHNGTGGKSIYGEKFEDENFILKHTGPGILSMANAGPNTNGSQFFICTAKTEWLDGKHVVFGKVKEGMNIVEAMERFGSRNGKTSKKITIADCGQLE
experimentDescription: Disruption of BRAF RBD interaction with Ras (FRET / MOA assay, with Cyclophilin A)
Type: biochemical
testParameters: KRAS G12V; read-out: KRAS G12V FRET data IC50

Some solved entries appear below for comparison.
compound: CCn1c(-c2cccnc2[C@H](C)OC)c2c3cc(ccc31)-c1csc(n1)C[C@H](NC(=O)[C@H](C(C)C)N(C)C(=O)N1CCO[C@@H](C)C1)C(=O)N1CCC[C@H](N1)C(=O)OCC(C)(C)C2 (atropisomer, axis not shown) [Example A309]
IC50: 100 to 1000 nM

compound: CCn1c(-c2cccnc2[C@H](C)OC)c2c3cc(ccc31)-c1cc(O)cc(c1)C[C@H](NS(=O)(=O)CCN(C)C)C(=O)N1CCC[C@H](N1)C(=O)OCC(C)(C)C2 (racemic) [Example A190]
IC50: > 10000 nM

compound: CCn1c(-c2cccnc2[C@H](C)OC)c2c3cc(ccc31)-c1cc(O)cc(c1)C[C@H](NC(=O)[C@@H]1C[C@H]1C)C(=O)N1CCC[C@H](N1)C(=O)OCC(C)(C)C2 [Example A183]
IC50: 1000 to 10000 nM

compound: CCn1c(-c2cccnc2[C@H](C)OC)c2c3cc(ccc31)-c1cc(O)cc(c1)C[C@H](NC(=O)[C@H](C(C)C)N(C)C(=O)C1(C#N)CC1)C(=O)N1CCC[C@H](N1)C(=O)OCC(C)(C)C2 (racemic) [Example A159]
IC50: 10 to 100 nM

compound: CCn1c(-c2cccnc2[C@H](C)OC)c2c3cc(ccc31)-c1csc(n1)C[C@H](NC(=O)[C@H](C(C)C)N(C)C(=O)N1C[C@@H]3CN(C)C[C@@H]31)C(=O)N1CCC[C@H](N1)C(=O)OCC(C)(C)C2 (atropisomer, axis not shown) [Example A446]
IC50: > 10000 nM

--- query ---
GET IC50 where system = KRAS G12V (Homo sapiens, UniProt P01116+P62937, G12V) and item = CCn1c(-c2cnccc2COC)c2c3cc(ccc31)-c1cc(O)cc(c1)C[C@H](NC(=O)[C@H]([C@@H](C)OC)N(C)C(C)=O)C(=O)N1CCC[C@H](N1)C(=O)OCC(C)(C)C2 [Example A76]
100 to 1000 nM

----------
system: KRAS G13C (Homo sapiens, UniProt P01116+P62937, G13C)
Sequence (P01116 1-169 isoform P01116-2 G13C limits assumed): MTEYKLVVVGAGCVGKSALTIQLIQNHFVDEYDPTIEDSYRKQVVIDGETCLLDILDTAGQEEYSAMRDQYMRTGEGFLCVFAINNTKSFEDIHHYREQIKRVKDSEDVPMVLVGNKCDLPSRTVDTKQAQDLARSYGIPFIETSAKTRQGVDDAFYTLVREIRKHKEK
Sequence (P62937 whole entry): as the sequence (P62937 whole entry) above
experimentDescription: Ras-Raf disruption / FRET / MOA assay (BRAF RBD)
Format: biochemical
testParameters: Ras-Raf disruption, with Cyclophilin A; read-out: KRAS G13C FRET data IC50
measuredAttribute: IC50

Examples from the recorded data:
compound: CCn1c(-c2cccnc2[C@H](C)OC)c2c3cc(ccc31)-c1cc(O)cc(c1)C[C@H](NC(=O)[C@H](C(C)C)N(C)C(=O)[C@H]1CCN(C(=O)[C@H]3CN3)[C@H]1C)C(=O)N1CCC[C@H](N1)C(=O)OCC(C)(C)C2 (atropisomer, axis not shown)
IC50: 100 to 1000 nM
--
compound: CCn1c(-c2cccnc2[C@H](C)OC)c2c3cc(ccc31)-c1cc(O)cc(c1)C[C@H](NC(=O)[C@H](C(C)C)N(C)C(=O)N1CC[C@H](N(C)C(=O)[C@@H]3CN3)C1)C(=O)N1CCC[C@H](N1)C(=O)OCC(C)(C)C2 (atropisomer, axis not shown)
IC50: 10 to 100 nM
--
compound: CCn1c(-c2cccnc2[C@H](C)OC)c2c3cc(ccc31)-c1cc(O)cc(c1)C[C@H](NC(=O)[C@H](C(C)C)N(C)C(=O)[C@H]1CCCN(C(=O)[C@@H]3CN3)C1)C(=O)N1CCC[C@H](N1)C(=O)OCC(C)(C)C2
IC50: 100 to 1000 nM

Could you now consider this next compound?
Please indicate IC50 recorded for CCn1c(-c2cccnc2[C@H](C)OC)c2c3cc(ccc31)-c1cc(O)cc(c1)C[C@H](NC(=O)[C@H](C(C)C)N(C)C(=O)c1ccc([C@H]3CN3)cc1)C(=O)N1CCC[C@H](N1)C(=O)OCC(C)(C)C2
10 to 100 nM

The measurements presented in this section are drawn from patent US20230233569A1.
